Source: the NIST ThermoML archive (doi:10.1016/j.tca.2013.05.007)

assay: molar heat capacity at constant pressure; details: 310.15 K; 101.33 kPa; Liquid; Large sample (1 g) DSC
Provide the recorded molar heat capacity at constant pressure for the entries that follow.
Unit J/K/mol implied. Number only.

Hello, please tell me recorded molar heat capacity at constant pressure for this one: CCCCn1cc[n+](C)c1.N#CN=C=[N-] [1-butyl-3-methylimidazolium dicyanamide]
382

Report molar heat capacity at constant pressure for CCCC[n+]1cccc(C)c1.O=S(=O)([N-]S(=O)(=O)C(F)(F)F)C(F)(F)F
561

Answer with the recorded molar heat capacity at constant pressure for the compound listed here: CC[n+]1cccc(C)c1.O=S(=O)([N-]S(=O)(=O)C(F)(F)F)C(F)(F)F
503

Complete the entry with molar heat capacity at constant pressure for CCC[n+]1cccc(C)c1.O=S(=O)([N-]S(=O)(=O)C(F)(F)F)C(F)(F)F
529

---

test: molar heat capacity at constant pressure; details: 324.15 K; 101.33 kPa; Liquid; Large sample (1 g) DSC
± gives the expanded uncertainty stated by the source.
Hi there, I'd appreciate the recorded molar heat capacity at constant pressure for every entry that follows.
Hey, just the number and the unit after it is fine.

Find the measured molar heat capacity at constant pressure of CCCCn1cc[n+](C)c1.O=S(=O)([O-])C(F)(F)F [1-butyl-3-methylimidazolium trifluoromethanesulfonate] and report it.
457 ± 46 J/K/mol

Please give measured molar heat capacity at constant pressure of the following entry: CCCC[n+]1cccc(C)c1.O=S(=O)([N-]S(=O)(=O)C(F)(F)F)C(F)(F)F
573 ± 58 J/K/mol

Write down molar heat capacity at constant pressure measured for item CCC[n+]1cccc(C)c1.O=S(=O)([N-]S(=O)(=O)C(F)(F)F)C(F)(F)F
541 ± 55 J/K/mol

Look up and state reported molar heat capacity at constant pressure for CC[n+]1cccc(C)c1.O=S(=O)([N-]S(=O)(=O)C(F)(F)F)C(F)(F)F
514 ± 52 J/K/mol

Supply reported molar heat capacity at constant pressure belonging to this compound: CCCC[n+]1cccc(C)c1.O=S(=O)([O-])C(F)(F)F [1-butyl-3-methylpyridinium trifluoromethanesulfonate]
462 ± 47 J/K/mol

Specify reported molar heat capacity at constant pressure for the compound shown: CCCCn1cc[n+](C)c1.N#CN=C=[N-] [1-butyl-3-methylimidazolium dicyanamide]
388 ± 39 J/K/mol

---

Give molar heat capacity at constant pressure for every item shown.
experiment: molar heat capacity at constant pressure; details: 322.15 K; 101.33 kPa; Liquid; Large sample (1 g) DSC
Numbers after ± are expanded uncertainties.

Give the reported value of molar heat capacity at constant pressure for this record: CCC[n+]1cccc(C)c1.O=S(=O)([N-]S(=O)(=O)C(F)(F)F)C(F)(F)F
539 ± 54 J/K/mol

Query molar heat capacity at constant pressure for CC[n+]1cccc(C)c1.O=S(=O)([N-]S(=O)(=O)C(F)(F)F)C(F)(F)F
513 ± 52 J/K/mol

Name the recorded molar heat capacity at constant pressure of the molecule listed here: CCCC[n+]1cccc(C)c1.O=S(=O)([N-]S(=O)(=O)C(F)(F)F)C(F)(F)F
571 ± 58 J/K/mol

Read off the recorded molar heat capacity at constant pressure for CCCCn1cc[n+](C)c1.N#CN=C=[N-] [1-butyl-3-methylimidazolium dicyanamide]
387 ± 39 J/K/mol

---

assay: molar heat capacity at constant pressure; conditions: 315.15 K; 101.33 kPa; Liquid; Large sample (1 g) DSC
Consider the following compounds; for each one, report its molar heat capacity at constant pressure.
Only the number, expressed in J/K/mol, is required.

Please list molar heat capacity at constant pressure recorded for the compound CCC[n+]1cccc(C)c1.O=S(=O)([N-]S(=O)(=O)C(F)(F)F)C(F)(F)F
533

For the compound CCCC[n+]1cccc(C)c1.O=S(=O)([N-]S(=O)(=O)C(F)(F)F)C(F)(F)F , report molar heat capacity at constant pressure.
565

Report molar heat capacity at constant pressure for CCCCn1cc[n+](C)c1.N#CN=C=[N-] [1-butyl-3-methylimidazolium dicyanamide]
384

Give molar heat capacity at constant pressure for CC[n+]1cccc(C)c1.O=S(=O)([N-]S(=O)(=O)C(F)(F)F)C(F)(F)F
507

---

assay: molar heat capacity at constant pressure; settings: 293.15 K; 101.33 kPa; Liquid; Large sample (1 g) DSC
Could you please report measured molar heat capacity at constant pressure for the items listed next?
Give a bare numeral; the unit J/K/mol is implied.

Give molar heat capacity at constant pressure for the following molecule: CCC[n+]1cccc(C)c1.O=S(=O)([N-]S(=O)(=O)C(F)(F)F)C(F)(F)F
510

For CCCCn1cc[n+](C)c1.N#CN=C=[N-] [1-butyl-3-methylimidazolium dicyanamide] , write its molar heat capacity at constant pressure.
372

Check the records and state molar heat capacity at constant pressure for CCCC[n+]1cccc(C)c1.O=S(=O)([N-]S(=O)(=O)C(F)(F)F)C(F)(F)F
541

Give reported molar heat capacity at constant pressure value for CC[n+]1cccc(C)c1.O=S(=O)([N-]S(=O)(=O)C(F)(F)F)C(F)(F)F
484

---

Task for the reader: assign each of the following molecules its reported molar heat capacity at constant pressure.
test: molar heat capacity at constant pressure; details: 305.15 K; 101.33 kPa; Liquid; Large sample (1 g) DSC
Your answer is read as J/K/mol, so omit the unit and give the number.

Report measured molar heat capacity at constant pressure; entry is CCC[n+]1cccc(C)c1.O=S(=O)([N-]S(=O)(=O)C(F)(F)F)C(F)(F)F
524

Answer with reported molar heat capacity at constant pressure of CCCC[n+]1cccc(C)c1.O=S(=O)([N-]S(=O)(=O)C(F)(F)F)C(F)(F)F
556

Note molar heat capacity at constant pressure for the molecule shown: CC[n+]1cccc(C)c1.O=S(=O)([N-]S(=O)(=O)C(F)(F)F)C(F)(F)F
499

Input CCCCn1cc[n+](C)c1.N#CN=C=[N-] [1-butyl-3-methylimidazolium dicyanamide] , output reported molar heat capacity at constant pressure.
380

---

Task for the reader: assign each of the following compounds its reported molar heat capacity at constant pressure.
assay: molar heat capacity at constant pressure; conditions: 307.15 K; 101.33 kPa; Liquid; Large sample (1 g) DSC
Enter your answer as a number in J/K/mol; do not include the unit.

Write down molar heat capacity at constant pressure measured for item CC[n+]1cccc(C)c1.O=S(=O)([N-]S(=O)(=O)C(F)(F)F)C(F)(F)F
501

Identify measured molar heat capacity at constant pressure associated with CCC[n+]1cccc(C)c1.O=S(=O)([N-]S(=O)(=O)C(F)(F)F)C(F)(F)F
526

Report measured molar heat capacity at constant pressure; entry is CCCC[n+]1cccc(C)c1.O=S(=O)([N-]S(=O)(=O)C(F)(F)F)C(F)(F)F
558

Give the reported molar heat capacity at constant pressure for this compound. CCCCn1cc[n+](C)c1.N#CN=C=[N-] [1-butyl-3-methylimidazolium dicyanamide]
381

---

For each of the compounds below, state its molar heat capacity at constant pressure.
test: molar heat capacity at constant pressure; conditions: 297.15 K; 101.33 kPa; Liquid; Large sample (1 g) DSC
Write the number in J/K/mol without appending the unit.

Could you please provide reported molar heat capacity at constant pressure for CC[n+]1cccc(C)c1.O=S(=O)([N-]S(=O)(=O)C(F)(F)F)C(F)(F)F ? Thanks!
490

Write down molar heat capacity at constant pressure measured for item CCC[n+]1cccc(C)c1.O=S(=O)([N-]S(=O)(=O)C(F)(F)F)C(F)(F)F
516

Recall and state the measured molar heat capacity at constant pressure for CCCC[n+]1cccc(C)c1.O=S(=O)([N-]S(=O)(=O)C(F)(F)F)C(F)(F)F .
547

Annotate the compound CCCCn1cc[n+](C)c1.N#CN=C=[N-] [1-butyl-3-methylimidazolium dicyanamide] with its measured molar heat capacity at constant pressure.
375

---

assay: molar heat capacity at constant pressure; conditions: 323.15 K; 101.33 kPa; Liquid; Large sample (1 g) DSC
Decision: molar heat capacity at constant pressure beneath 500 J/K/mol gives T; molar heat capacity at constant pressure meeting or exceeding 500 J/K/mol gives F.

Does the reported molar heat capacity at constant pressure of CCCC[n+]1cccc(C)c1.O=S(=O)([N-]S(=O)(=O)C(F)(F)F)C(F)(F)F stay below 500 J/K/mol?
F

Quick check: molar heat capacity at constant pressure of CCCCn1cc[n+](C)c1.O=S(=O)([O-])C(F)(F)F [1-butyl-3-methylimidazolium trifluoromethanesulfonate] under 500 J/K/mol?
T

For this molecule, is molar heat capacity at constant pressure lower than 500 J/K/mol? CCCCn1cc[n+](C)c1.N#CN=C=[N-] [1-butyl-3-methylimidazolium dicyanamide]
T

I wonder whether CCC[n+]1cccc(C)c1.O=S(=O)([N-]S(=O)(=O)C(F)(F)F)C(F)(F)F has molar heat capacity at constant pressure below 500 J/K/mol. Can you tell?
F

Dear reviewer, please state whether CCCC[n+]1cccc(C)c1.O=S(=O)([O-])C(F)(F)F [1-butyl-3-methylpyridinium trifluoromethanesulfonate] has molar heat capacity at constant pressure strictly beneath 500 J/K/mol.
T
